Test system: K4 kissing-loop RNA reporter
assay: apparent KD of K4 kissing-loop reporter; higher = weaker reporter binding
recorded-conditions: Eterna round: R107; input ligand: none
Assign Fulfilled whenever apparent KD of K4 kissing-loop reporter does not fall below 300 nM; assign Not fulfilled whenever it does.

Completed entries (count: 4):
{"sequence-input": "ACUGAAAGAUCUGAUACCAGACUUUUUGUAUUUAUUAAAACUAGUGAUGUUAGUUUAUCAGUCCCUUGGCAGCAGUUACUACAGA [JR_Nu_ExcTheophyB_Sub024]", "study-target": "K4 kissing-loop RNA reporter", "assigned-label": "Not fulfilled"}
{"sequence-input": "GGAACUACGACGGCCGCCACUCUGUAUCCCAACGUUAAGGUCCUAACUGCAAGUGAUGUUUGUGCGAGGACCGGGUCUCCCUUGC [theeternabot_exclusion_KL_Trp_B_30]", "study-target": "K4 kissing-loop RNA reporter", "assigned-label": "Not fulfilled"}
{"sequence-input": "AAAAUAAGCCAGUGAUGUUGGUAUCCAGAUACCAGCGACGAAAGUCGCCCUUGGCAGCUGUGGACGUACAAAAUAAGUACGUCCU", "study-target": "K4 kissing-loop RNA reporter", "assigned-label": "Not fulfilled"}
{"sequence-input": "GGAUCCACCAGUGAUGUUGGAGAAAACUCUAAGGAUAUGACGAAAGUCAGAAGGUGGUAGACUGGACAAAGUCCGGUCGGAUCCA [FmnA 23 U30]", "study-target": "K4 kissing-loop RNA reporter", "assigned-label": "Fulfilled"}

Okay, now this sequence:
stdin: Is it the case that UGACUGGACUGAAGGAGCGCUGAACUCCUAGUGAUGUUAGGACAACGAGACAAAGUCUCGCGGCAGGUAGGUCGCAGUCUAGUCU has apparent KD of K4 kissing-loop reporter reaching or exceeding 300 nM?
stdout: Not fulfilled

###

Test system: K4 kissing-loop RNA reporter;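 note: bound reporter read as fluorescence of individual clusters on recovered sequencing chips by microscopy, with normalized cluster intensities fitted with a binding model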
assay: apparent KD of K4 kissing-loop reporter; higher = weaker reporter binding
recorded-conditions: Eterna round: R107; input ligand: tryptophan 2.4 mM
apparent KD of K4 kissing-loop reporter: recorded values
Answer with a number only, understood to be in nM.

The cases that follow already have their apparent KD of K4 kissing-loop reporter on record.
{"sequence-input": "CGCGCGCGCGCGCGCGCGCGCGAAAAUGAUACCAGUAUAUAAGAAUACCCUUGGCAGCAUAAGAAAGAUAUAGUGAUGUUGUAUA [SSTheophA.A]", "units-label": "nM", "apparent KD of K4 kissing-loop reporter": 161}
{"sequence-input": "AACUCUCAGACACUUGAGUGAUGUUCAGACCGAGGACCGGUACGGCCGCCACUCGGGUCUGAGAGAGGUUAUCAAAGAUAGCCAA [Omei KL Tryp A SS A v7]", "units-label": "nM", "apparent KD of K4 kissing-loop reporter": 905}
{"sequence-input": "AAGGGCAGGACUUCCUUGCCGGAUAGAGAUACCAGCCCAGCAAAGGGCCCUUGGCAGCUCACUGACCUCAGUGAUGUUGAGGUUC [Xebisoer]", "units-label": "nM", "apparent KD of K4 kissing-loop reporter": 297}

Kindly consider the entry below.
stdin: For the sequence UGAUACCAGACUGAUACCAGCUAGUGAUGUUAGCUGAUCUAAGGACCGUCAAAGACGGCUAGCCCUUGGCAGCAGUCUGGUAUCU [TheoBX 13 #SwitchBubble #StaticStem] , report apparent KD of K4 kissing-loop reporter.
stdout: 121
